Item-by-item account of CHLORIDE
Species on record: Rattus norvegicus
Experiment: DrugMatrix - Regimen: Daily Repeat
Type: toxicity, organism-based, Sprague-Dawley
Design: regimen Daily Repeat, gender Male, age 6-8 weeks
Details: in vivo, po, 0 mg/kg, 72 h, tissue Plasma, route oral GAVAGE, dose level Control, time 3 day, vehicle .5 % CMC

{"columns": ["Molecule", "CHLORIDE, MEQ/L"],
 "data": [
  ["CC(C)(C)NC(=O)[C@@H]1C[C@@H]2CCCC[C@@H]2CN1C[C@@H](O)[C@H](Cc1ccccc1)NC(=O)[C@H](CC(N)=O)NC(=O)c1ccc2ccccc2n1", 99.17],
  ["Cc1nc2n(c(=O)c1CCN1CCC(c3noc4cc(F)ccc34)CC1)CCCC2", 104.17],
  ["Cc1ccc(/N=C/N(C)/C=N/c2ccc(C)cc2C)c(C)c1", 99.17],
  ["CC1CC(OC(=O)C(O)c2ccccc2)CC(C)(C)C1 (centres undefined) [CYCLANDELATE]", 99.33]
]}

Numbers sourced from ChEMBL document CHEMBL3885881.
